tested on: barnyardgrass; experiment: Test A preemergence; type: in vivo, Echinochloa crus-galli; details: 125 g ai/ha, 0 to 100 scale (0 no effect, 100 complete control)
// reported Plant response rating, Barnyardgrass per item
API note: the answer field is a bare number with no unit suffix.

Completed entries (count: 6):
CCCc1nc(-c2ccc(C(F)(F)F)cc2)nn1Cc1ccnc(C(F)(F)F)c1 | 50
Cc1nc(-c2ccc(Br)cc2)nn1Cc1ccnc(C(F)(F)F)c1 | 60
CCCn1nc(-c2ccc(F)cc2)nc1C(O)c1ccnc(C(F)(F)F)c1 (stereo not shown) | 0
COc1nc(-c2ccc(Cl)cc2)nn1Cc1ccnc(C(F)(F)F)c1 | 30
CCc1nc(-c2cccc(C(F)(F)F)c2)nn1Cc1ccnc(C(F)(F)F)c1 | 0
Cn1nc(-c2ccc(F)cc2)nc1Cc1ccnc(C(F)(F)F)c1 | 30

Then this compound:
Exercise: Name the reported Plant response rating, Barnyardgrass value associated with the compound `CCCc1nc(-c2ccc(Cl)cc2)nn1Cc1ccnc(C(F)(F)F)c1`
Solution: 40

----------
system: velvetleaf; experiment: Test C preemergence; type: in vivo, Abutilon theophrasti; details: Preemergence, 31 g ai/ha, visual rating after 13 to 15 d
// reported Velvetleaf plant response rating (0 to 100) per item
API note: the answer field is a bare number with no unit suffix.

Completed entries (count: 2):
COc1nc(-c2ccc(F)cc2)nn1Cc1ccnc(C(F)(F)F)c1 | 20
CCOc1nc(-c2ccc(F)cc2)nn1Cc1ccnc(C(F)(F)F)c1 | 70

Exercise: Name the reported Velvetleaf plant response rating (0 to 100) value associated with the compound `CCCc1nc(-c2ccc(F)cc2)nn1Cc1ccnc(C(F)(F)F)c1`
Solution: 20

Exercise: Ok, now `FC(F)(F)COc1nc(-c2ccccc2)nn1Cc1ccnc(C(F)(F)F)c1`
Solution: 30

Exercise: Ok, now `Fc1ccc(-c2nc(OCC(F)(F)F)n(Cc3ccnc(C(F)(F)F)c3)n2)cc1`
Solution: 20

Exercise: Ok, now `CCOc1nc(-c2ccccc2)nn1Cc1ccnc(C(F)(F)F)c1`
Solution: 10

----------
tested on: soybean; experiment: Test C preemergence; assay type: in vivo, Glycine max; conditions: Preemergence, 62 g ai/ha, visual rating after 13 to 15 d
readout.name: Soybean plant response rating (0 to 100)
API note: the answer field is a bare number with no unit suffix.

Completed entries (count: 2):
Fc1ccc(-c2nc(OCC(F)(F)F)n(Cc3ccnc(C(F)(F)F)c3)n2)cc1 | 5
COc1nc(-c2ccc(F)cc2)nn1Cc1ccnc(C(F)(F)F)c1 | 0

Exercise: Name the reported Soybean plant response rating (0 to 100) value associated with the compound `CCCc1nc(-c2ccc(F)cc2)nn1Cc1ccnc(C(F)(F)F)c1`
Solution: 5

Exercise: Ok, now `FC(F)(F)COc1nc(-c2ccc(Cl)cc2)nn1Cc1ccnc(C(F)(F)F)c1`
Solution: 5

Exercise: Ok, now `FC(F)(F)COc1nc(-c2ccccc2)nn1Cc1ccnc(C(F)(F)F)c1`
Solution: 5

Exercise: Ok, now `CCOc1nc(-c2ccccc2)nn1Cc1ccnc(C(F)(F)F)c1`
Solution: 40

----------
tested on: johnsongrass; experiment: Test C postemergence; format: in vivo, Sorghum halepense; conditions: 125 g ai/ha
readout.name: Plant response rating (scale of 0 to 100 where 0 is no effect and 100 is complete control)
API note: the answer field is a bare number with no unit suffix.

CCOc1nc(-c2ccc(F)cc2)nn1Cc1ccnc(C(F)(F)F)c1 | 30
COc1nc(-c2ccc(F)cc2)nn1Cc1ccnc(C(F)(F)F)c1 | 10
COc1nc(-c2ccc(Cl)cc2)nn1Cc1ccnc(C(F)(F)F)c1 | 10

Then this molecule:
Exercise: Name the reported Plant response rating (scale of 0 to 100 where 0 is no effect and 100 is complete control) value associated with the molecule `Fc1ccc(-c2nc(OCC(F)(F)F)n(Cc3ccnc(C(F)(F)F)c3)n2)cc1`
Solution: 35
